- test-target: PSMA-expressing C4-2 cells (Homo sapiens)
- Construct: PSMA-expressing C4-2 cells (ATCC, Cat. No. CRL-3314) were cultured in RPMI-1640; host or cells: C4-2 cells
- Sequence (Q04609 whole entry): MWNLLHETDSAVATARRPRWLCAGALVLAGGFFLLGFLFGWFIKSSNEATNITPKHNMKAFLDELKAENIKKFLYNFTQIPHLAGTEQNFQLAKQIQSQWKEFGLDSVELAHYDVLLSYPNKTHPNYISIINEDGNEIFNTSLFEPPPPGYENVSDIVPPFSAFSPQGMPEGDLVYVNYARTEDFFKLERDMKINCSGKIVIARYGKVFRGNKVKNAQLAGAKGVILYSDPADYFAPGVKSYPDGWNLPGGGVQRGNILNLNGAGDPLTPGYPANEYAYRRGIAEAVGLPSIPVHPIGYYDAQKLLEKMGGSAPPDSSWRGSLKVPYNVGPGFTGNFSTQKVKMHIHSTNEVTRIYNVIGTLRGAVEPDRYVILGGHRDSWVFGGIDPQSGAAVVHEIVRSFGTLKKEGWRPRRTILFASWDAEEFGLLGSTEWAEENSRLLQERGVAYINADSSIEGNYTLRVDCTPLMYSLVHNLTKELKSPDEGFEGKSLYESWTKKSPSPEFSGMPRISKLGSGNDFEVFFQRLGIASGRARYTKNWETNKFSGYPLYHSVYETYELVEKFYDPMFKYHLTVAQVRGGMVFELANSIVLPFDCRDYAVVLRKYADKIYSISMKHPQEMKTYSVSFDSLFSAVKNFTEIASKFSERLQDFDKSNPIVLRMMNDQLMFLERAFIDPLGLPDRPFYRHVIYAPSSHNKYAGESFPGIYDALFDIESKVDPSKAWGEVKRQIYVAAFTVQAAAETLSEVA
- experiment-description: FACS binding assay (competition with 50 nM PSM-0183)
- setup-conditions: FACS binding, PSMA-expressing C4-2 cells; pIC50 category; read-out: pIC50 [C4-2] CAT (converted)
Bridge positions count the residues as written; N and C are the ends. Square brackets hold non-standard residues; d marks the D form. Peptide text beside a SMILES is read from it. * marks the point of attachment. X7 = O=C(O)CN1CCN(CC(=O)O)CCN(CC(=O)NC2CCN(CC(=O)*)CC2)CCN(CC(=O)O)CC1; DOTA = O=C(O)CN1CCN(CC(=O)O)CCN(CC(=O)*)CCN(CC(=O)O)CC1; Phe(4-Cl) = N[C@@H](Cc1ccc(Cl)cc1)C(=O)O; Tle = CC(C)(C)[C@H](N)C(=O)O; Isovaleryl = CC(C)CC(=O)*; Aib = CC(C)(N)C(=O)O; GABA = NCCCC(=O)O
Parameter: IC50. Scope: all listed entries.

CC(=O)NC(C)(C)C(=O)N[C@@H](Cc1ccc(Cl)cc1)C(=O)N[C@H]1CSSC[C@@H](C(=O)N[C@H](C(=O)N[C@H](C(N)=O)[C@@H](C)O)C(C)(C)C)NC(=O)[C@H](CC(N)=O)NC(=O)[C@H](CCCCNC(=O)CN2CCC(NC(=O)CN3CCN(CC(=O)O)CCN(CC(=O)O)CCN(CC(=O)O)CC3)CC2)NC(=O)[C@H](CCCNC(=N)N)NC(=O)[C@H](CCCCN)NC1=O [PSM-0282] (Ac-[Aib][Phe(4-Cl)]CKRK(X7)NC[Tle]T-NH2; disulfide 3-8); < 200 nM

Query: Find IC50 (PSMA-expressing C4-2 cells (Homo sapiens)) for the entry CC(C)CC(=O)NC(C)(C)C(=O)N[C@@H](Cc1ccccc1)C(=O)N[C@H]1CSSC[C@@H](C(=O)N[C@H](C(=O)N[C@H](C(=O)N[C@H](CCCCNC(=O)CN2CCN(CC(=O)O)CCN(CC(=O)O)CCN(CC(=O)O)CC2)C(N)=O)[C@@H](C)O)C(C)(C)C)NC(=O)[C@H](CC(N)=O)NC(=O)C(C)(C)NC(=O)[C@H](CCCNC(=N)N)NC(=O)[C@H](CCCCN)NC1=O [PSM-0292] (Isovaleryl-[Aib]FCKR[Aib]NC[Tle]T[dK](DOTA)-NH2; disulfide 3-8)
Result: < 200 nM

Query: Find IC50 (PSMA-expressing C4-2 cells (Homo sapiens)) for the entry CC(=O)N[C@H](C(=O)NC(C)(C)C(=O)N[C@@H](Cc1ccccc1)C(=O)N[C@H]1CSSC[C@@H](C(=O)N[C@H](C(=O)NCCCC(N)=O)C(C)(C)C)NC(=O)[C@H](CC(N)=O)NC(=O)C(C)(C)NC(=O)[C@H](CCCNC(=N)N)NC(=O)[C@H](CCCCN)NC1=O)[C@@H](C)O [PSM-0297] (Ac-T[Aib]FCKR[Aib]NC[Tle][GABA]-NH2; disulfide 4-9)
Result: < 200 nM

###

- test-target: Fc-fusion protein of human PSMA (hPSMA-Fc) (Homo sapiens)
- Construct: purchased Acro Biosystems PSA-H5264
- experiment-description: Surface plasmon resonance assay (Biacore T200, single cycle kinetic)
- Format: binding
- setup-conditions: SPR, hPSMA-Fc, single cycle kinetic, 25° C.; category; read-out: pKD CAT (converted)
Numbered stars: 1 amine (or outer) side, 2 acyl side, 3 side chain; on linkers, the order of the positions; unused ones are H or OH. Bridge positions count the residues as written; N and C are the ends. Square brackets hold non-standard residues; d marks the D form. Peptide text beside a SMILES is read from it. * marks the point of attachment. X2 = O=C(O)CN1CCN(CC(=O)O)CCN([C@H](CCC(=O)*)C(=O)O)CCN(CC(=O)O)CC1; DOTA = O=C(O)CN1CCN(CC(=O)O)CCN(CC(=O)*)CCN(CC(=O)O)CC1; Phe(4-Cl) = N[C@@H](Cc1ccc(Cl)cc1)C(=O)O; Dap(CONH2) = NC(=O)NC[C@H](N)C(=O)O; Ethylenediamine = C(CN[*:2])N[*:1]; Hyp = O=C(O)[C@@H]1C[C@@H](O)CN1; X1 = O=C(CC1CCN([*:1])CC1)[*:2]; Tle = CC(C)(C)[C@H](N)C(=O)O; Aib = CC(C)(N)C(=O)O
reported-property: Kd

C[C@@H](O)[C@H](NC(=O)CN1CCN(CC(=O)O)CCN(CC(=O)O)CCN(CC(=O)O)CC1)C(=O)NC(C)(C)C(=O)N[C@@H](Cc1ccc(Cl)cc1)C(=O)N[C@H]1CSSC[C@@H](C(=O)N[C@H](C(=O)NCCN)C(C)(C)C)NC(=O)[C@H](CC(N)=O)NC(=O)C(C)(C)NC(=O)[C@H](CCCNC(=N)N)NC(=O)[C@H](CCCCN)NC1=O [PSM-0222] ({DOTA}-T[Aib][Phe(4-Cl)]CKR[Aib]NC[Tle]-Ethylenediamine; disulfide 4-9); < 12.6 nM
C[C@@H](O)[C@H](NC(=O)CN1CCN(CC(=O)O)CCN(CC(=O)O)CCN(CC(=O)O)CC1)C(=O)NC(C)(C)C(=O)N[C@@H](Cc1ccccc1)C(=O)N[C@H]1CSSC[C@@H](C(=O)N[C@H](C(N)=O)C(C)(C)C)NC(=O)[C@H](CC(N)=O)NC(=O)C(C)(C)NC(=O)[C@H](CCCNC(=N)N)NC(=O)[C@H](CCCCN)NC1=O [PSM-0184] ({DOTA}-T[Aib]FCKR[Aib]NC[Tle]-NH2; disulfide 4-9); 12.6 to 126 nM
CC(=O)N[C@H](C(=O)NC(C)(C)C(=O)N[C@@H](Cc1ccccc1)C(=O)N[C@H]1CSSC[C@@H](C(=O)N[C@H](C(=O)N[C@H](C(=O)N[C@@H](CC(=O)O)C(N)=O)[C@@H](C)O)C(C)(C)C)NC(=O)[C@H](CC(N)=O)NC(=O)[C@@H]2C[C@@H](O)CN2C(=O)[C@H](CCCNC(=N)N)NC(=O)[C@H](CCCCN)NC1=O)[C@@H](C)O [PSM-0181] (Ac-T[Aib]FCKR[Hyp]NC[Tle]TD-NH2; disulfide 4-9); < 12.6 nM
C[C@@H](O)[C@H](NC(=O)[C@@H](NC(=O)[C@@H]1CSSC[C@H](NC(=O)[C@H](Cc2ccccc2)NC(=O)C(C)(C)NC(=O)[C@@H](NC(=O)CC2CCN(C(=O)CC[C@H](C(=O)O)N3CCN(CC(=O)O)CCN(CC(=O)O)CCN(CC(=O)O)CC3)CC2)[C@@H](C)O)C(=O)N[C@@H](CCCCN)C(=O)N[C@@H](CCCNC(=N)N)C(=O)NC(C)(C)C(=O)N[C@@H](CC(N)=O)C(=O)N1)C(C)(C)C)C(N)=O [PSM-0218] (X2-[X1]T[Aib]FCKR[Aib]NC[Tle]T-NH2; disulfide 5-10); < 12.6 nM

Next up:
Query: Find Kd (Fc-fusion protein of human PSMA (hPSMA-Fc) (Homo sapiens)) for the entry CC(=O)N[C@H](C(=O)NC(C)(C)C(=O)N[C@@H](Cc1ccccc1)C(=O)N[C@H]1CSSC[C@@H](C(=O)N[C@H](C(=O)N[C@H](C(=O)N[C@@H](CC(=O)O)C(N)=O)[C@@H](C)O)C(C)(C)C)NC(=O)[C@H](CC(N)=O)NC(=O)[C@H](C)NC(=O)[C@H](CNC(N)=O)NC(=O)[C@H](CCCCN)NC1=O)[C@@H](C)O [PSM-0180] (Ac-T[Aib]FCK[Dap(CONH2)]ANC[Tle]TD-NH2; disulfide 4-9)
Result: 12.6 to 126 nM
